subject of test: T1, G9a and GLP (Homo sapiens, UniProt Q96KQ7+Q9H9B1)
T1 sequence (Q96KQ7 2-1210 limits assumed): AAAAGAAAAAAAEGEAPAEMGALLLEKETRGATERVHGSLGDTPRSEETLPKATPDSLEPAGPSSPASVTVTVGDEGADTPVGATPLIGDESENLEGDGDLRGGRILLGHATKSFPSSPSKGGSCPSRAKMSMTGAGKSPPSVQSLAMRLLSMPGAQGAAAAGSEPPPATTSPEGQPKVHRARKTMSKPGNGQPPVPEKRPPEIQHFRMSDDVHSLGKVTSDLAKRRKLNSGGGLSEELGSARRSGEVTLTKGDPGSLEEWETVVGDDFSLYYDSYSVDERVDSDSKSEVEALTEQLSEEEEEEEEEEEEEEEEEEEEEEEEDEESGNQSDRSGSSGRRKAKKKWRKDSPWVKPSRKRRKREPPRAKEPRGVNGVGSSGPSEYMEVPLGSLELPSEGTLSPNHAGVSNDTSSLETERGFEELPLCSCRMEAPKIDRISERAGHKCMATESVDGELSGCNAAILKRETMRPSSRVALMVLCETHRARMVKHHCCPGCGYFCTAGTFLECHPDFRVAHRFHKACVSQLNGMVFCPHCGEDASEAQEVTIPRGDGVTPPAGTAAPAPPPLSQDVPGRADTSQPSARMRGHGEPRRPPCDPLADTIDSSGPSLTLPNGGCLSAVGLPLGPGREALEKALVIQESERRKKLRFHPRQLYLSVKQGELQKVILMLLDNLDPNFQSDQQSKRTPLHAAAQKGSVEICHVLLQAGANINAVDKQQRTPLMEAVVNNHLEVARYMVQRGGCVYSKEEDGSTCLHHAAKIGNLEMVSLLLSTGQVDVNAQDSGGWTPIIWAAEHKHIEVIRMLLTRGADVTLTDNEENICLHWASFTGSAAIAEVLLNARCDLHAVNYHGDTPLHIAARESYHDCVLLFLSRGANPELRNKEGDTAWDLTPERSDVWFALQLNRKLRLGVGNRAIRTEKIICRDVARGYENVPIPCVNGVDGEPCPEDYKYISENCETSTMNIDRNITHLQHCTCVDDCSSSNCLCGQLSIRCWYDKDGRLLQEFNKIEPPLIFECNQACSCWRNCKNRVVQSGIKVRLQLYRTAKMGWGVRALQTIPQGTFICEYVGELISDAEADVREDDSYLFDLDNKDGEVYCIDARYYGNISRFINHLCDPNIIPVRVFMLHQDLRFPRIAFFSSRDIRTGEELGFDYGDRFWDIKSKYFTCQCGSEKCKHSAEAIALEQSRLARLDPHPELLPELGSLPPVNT
T1 sequence (Q9H9B1 2-1298 limits assumed): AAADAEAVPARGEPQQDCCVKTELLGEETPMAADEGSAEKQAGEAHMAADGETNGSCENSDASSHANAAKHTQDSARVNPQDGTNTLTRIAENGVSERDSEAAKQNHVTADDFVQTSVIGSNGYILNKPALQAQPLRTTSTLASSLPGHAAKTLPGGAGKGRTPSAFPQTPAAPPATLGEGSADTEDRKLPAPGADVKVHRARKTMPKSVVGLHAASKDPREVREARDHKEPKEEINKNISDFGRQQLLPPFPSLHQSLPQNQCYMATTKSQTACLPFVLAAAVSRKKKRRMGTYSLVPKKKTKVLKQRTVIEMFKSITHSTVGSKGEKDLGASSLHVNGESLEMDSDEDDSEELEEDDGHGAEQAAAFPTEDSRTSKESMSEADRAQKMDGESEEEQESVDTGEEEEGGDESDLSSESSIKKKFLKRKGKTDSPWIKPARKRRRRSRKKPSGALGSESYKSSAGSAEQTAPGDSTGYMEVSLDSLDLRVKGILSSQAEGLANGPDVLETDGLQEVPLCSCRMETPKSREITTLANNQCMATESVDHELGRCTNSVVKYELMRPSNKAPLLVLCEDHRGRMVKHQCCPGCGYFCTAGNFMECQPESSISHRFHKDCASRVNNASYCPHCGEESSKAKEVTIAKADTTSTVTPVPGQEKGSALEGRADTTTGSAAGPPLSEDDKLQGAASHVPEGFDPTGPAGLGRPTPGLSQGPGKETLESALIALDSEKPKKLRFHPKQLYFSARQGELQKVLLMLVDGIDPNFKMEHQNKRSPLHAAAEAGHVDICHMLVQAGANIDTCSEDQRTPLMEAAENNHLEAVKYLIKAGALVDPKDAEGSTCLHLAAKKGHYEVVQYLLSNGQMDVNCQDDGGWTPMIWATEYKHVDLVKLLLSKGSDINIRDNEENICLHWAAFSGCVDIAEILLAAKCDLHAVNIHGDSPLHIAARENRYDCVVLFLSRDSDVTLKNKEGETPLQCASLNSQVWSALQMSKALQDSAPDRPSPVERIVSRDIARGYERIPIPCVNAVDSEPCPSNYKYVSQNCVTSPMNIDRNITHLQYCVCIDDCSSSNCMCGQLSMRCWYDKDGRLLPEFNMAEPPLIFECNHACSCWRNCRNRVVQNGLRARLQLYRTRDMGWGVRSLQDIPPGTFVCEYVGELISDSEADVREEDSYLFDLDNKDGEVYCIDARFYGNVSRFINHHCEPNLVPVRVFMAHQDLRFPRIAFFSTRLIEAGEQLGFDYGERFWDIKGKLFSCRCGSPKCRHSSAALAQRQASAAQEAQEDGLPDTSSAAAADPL
assay protocol: Triple SILAC pull-down after UNC0638 treatment of 293T cells, DMSO/UNC0638 ratio of protein captured by 3×MBT;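 note: mass spectrometry (Q-Exactive) SILAC quantitation, DMSO/UNC0638 ratio computed after subtracting 3×MBTD355N mutant pull-down background, only proteins with at least twofold 3×MBT over mutant signal considered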
Format: cell-based
Design: cells were treated for 24 hours with UNC0638 at 2.5 μM or DMSO vehicle control; endogenous in cells; host or cells: HEK 293T
assay context: SILAC ratio DMSO/UNC0638 of protein pulled down with 3xMBT; UNC0638 in heavy SILAC media
metric name: Relative to UNC0638 UNC Heavy (log base 2)
Report the value in log base 2 with no unit label.

IN: Let me know recorded Relative to UNC0638 UNC Heavy for NHP2L1: protein with methylated lysine identified in 3xMBT pull-down (protein, UniProt P55769 1-128, looked up) NHP2-like protein 1: MTEADVNPKAYPLADAHLTKKLLDLVQQSCNYKQLRKGANEATKTLNRGISEFIVMAADAEPLEIILHLPLLCEDKNVPYVFVRSKQALGRACGVSRPVIACSVTIKEGSQLKQQIQSIQQSIERLLV , thanks.
OUT: −0.86

IN: Please look at this molecule and report its Relative to UNC0638 UNC Heavy: SEPT2 (protein, UniProt Q15019 1-361, looked up) Septin-2: MSKQQPTQFINPETPGYVGFANLPNQVHRKSVKKGFEFTLMVVGESGLGKSTLINSLFLTDLYPERVIPGAAEKIERTVQIEASTVEIEERGVKLRLTVVDTPGYGDAINCRDCFKTIISYIDEQFERYLHDESGLNRRHIIDNRVHCCFYFISPFGHGLKPLDVAFMKAIHNKVNIVPVIAKADTLTLKERERLKKRILDEIEEHNIKIYHLPDAESDEDEDFKEQTRLLKASIPFSVVGSNQLIEAKGKKVRGRLYPWGVVEVENPEHNDFLKLRTMLITHMQDLQEVTQDLHYENFRSERLKRGGRKVENEDMNKDQILLEKEAELRRMQEMIARMQAQMQMQMQGGDGDGGALGHHV
OUT: 0.21
